target: Human αvβ3 (Homo sapiens, UniProt P05106+P06756); construct: purchased Chemicon International Inc., Temecula, Calif; experiment: In vitro solid phase purified αvβ3 binding assay (vitronectin/αvβ3); conditions: isolated human αvβ3, 5 nM vitronectin; read-out: αvβ3 Binding IC50
Sequence (P06756 31-889 limits assumed): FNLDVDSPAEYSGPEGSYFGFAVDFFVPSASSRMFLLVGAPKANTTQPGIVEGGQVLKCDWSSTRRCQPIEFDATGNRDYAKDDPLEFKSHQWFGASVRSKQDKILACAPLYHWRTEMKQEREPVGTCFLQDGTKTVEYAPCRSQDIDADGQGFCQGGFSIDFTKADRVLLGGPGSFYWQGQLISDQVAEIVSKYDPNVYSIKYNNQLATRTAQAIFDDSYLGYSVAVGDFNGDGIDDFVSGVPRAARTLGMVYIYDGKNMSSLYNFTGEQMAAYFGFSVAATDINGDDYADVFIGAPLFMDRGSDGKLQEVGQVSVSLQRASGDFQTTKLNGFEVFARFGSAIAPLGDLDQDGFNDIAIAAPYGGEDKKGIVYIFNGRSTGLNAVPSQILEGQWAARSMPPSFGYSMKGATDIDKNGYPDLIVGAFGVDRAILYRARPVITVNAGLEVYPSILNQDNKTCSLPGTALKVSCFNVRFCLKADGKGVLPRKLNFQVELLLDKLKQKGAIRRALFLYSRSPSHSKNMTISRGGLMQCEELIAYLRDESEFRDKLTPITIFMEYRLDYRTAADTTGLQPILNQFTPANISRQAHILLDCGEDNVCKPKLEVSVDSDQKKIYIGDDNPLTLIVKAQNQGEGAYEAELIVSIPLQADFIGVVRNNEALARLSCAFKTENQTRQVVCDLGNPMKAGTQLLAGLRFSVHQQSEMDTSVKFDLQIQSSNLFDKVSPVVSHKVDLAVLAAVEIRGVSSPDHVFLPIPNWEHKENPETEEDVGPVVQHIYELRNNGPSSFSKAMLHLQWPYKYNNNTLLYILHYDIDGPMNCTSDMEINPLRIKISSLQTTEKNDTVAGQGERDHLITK
Sequence (P06756 891-1048 partner limits assumed): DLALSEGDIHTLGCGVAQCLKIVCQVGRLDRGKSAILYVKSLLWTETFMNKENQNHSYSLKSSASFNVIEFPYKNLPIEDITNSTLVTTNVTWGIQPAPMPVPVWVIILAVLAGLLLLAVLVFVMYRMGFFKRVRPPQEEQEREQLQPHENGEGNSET
Sequence (P05106 27-788): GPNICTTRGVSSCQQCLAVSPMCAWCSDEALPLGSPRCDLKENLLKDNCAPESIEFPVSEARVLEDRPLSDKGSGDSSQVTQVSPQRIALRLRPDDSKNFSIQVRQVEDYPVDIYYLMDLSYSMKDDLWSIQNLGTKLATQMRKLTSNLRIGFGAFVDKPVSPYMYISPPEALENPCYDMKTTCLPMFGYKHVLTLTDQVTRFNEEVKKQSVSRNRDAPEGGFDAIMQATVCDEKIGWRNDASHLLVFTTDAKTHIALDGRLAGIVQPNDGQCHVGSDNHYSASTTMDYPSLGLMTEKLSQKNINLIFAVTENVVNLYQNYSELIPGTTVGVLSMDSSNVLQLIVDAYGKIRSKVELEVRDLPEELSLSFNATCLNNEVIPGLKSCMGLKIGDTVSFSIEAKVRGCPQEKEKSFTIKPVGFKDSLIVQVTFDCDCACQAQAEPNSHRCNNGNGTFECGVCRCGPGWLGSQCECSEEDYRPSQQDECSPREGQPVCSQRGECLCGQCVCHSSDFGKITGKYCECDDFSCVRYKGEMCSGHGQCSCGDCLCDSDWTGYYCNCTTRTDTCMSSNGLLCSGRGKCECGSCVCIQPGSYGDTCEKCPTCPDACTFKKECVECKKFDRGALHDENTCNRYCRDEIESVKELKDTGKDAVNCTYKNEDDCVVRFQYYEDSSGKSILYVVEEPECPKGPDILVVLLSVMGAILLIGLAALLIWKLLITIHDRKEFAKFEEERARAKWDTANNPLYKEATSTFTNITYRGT
measurement-type: pIC50
Keep in mind that pIC50 stands for -log10 of concentration in molar terms.

Cc1c(C)c(C)c(S(=O)(=O)N[C@@H](Cc2nc3ccc(/C=C/CNC(=O)NC4C[C@H]4c4ccccc4)cc3c(=O)[nH]2)C(=O)O)c(C)c1C (some centres unmarked) [Compound 66] | 6.68
COc1ccc(OC)c(S(=O)(=O)N[C@@H](Cc2nc3ccc(/C=C/CNc4ccccn4)cc3c(=O)[nH]2)C(=O)O)c1 [Compound 32] | 7.68
O=C(O)[C@H](Cc1nc2ccc(/C=C/CNc3ccccn3)cc2c(=O)[nH]1)NS(=O)(=O)c1ccc(-c2ccon2)s1 [Compound 31] | 7.15
CNC(=O)NC/C=C/c1ccc2nc(C[C@H](NS(=O)(=O)c3c(C)c(C)c(C)c(C)c3C)C(=O)O)[nH]c(=O)c2c1 [Compound 59] | 7.23

API: the following record is the query input.
Fill in reported pIC50 for this entry: O=C(O)[C@H](Cc1nc2ccc(/C=C/CNc3ccccn3)cc2c(=O)[nH]1)NS(=O)(=O)c1ccc(C(F)(F)F)cc1 [Compound 25]
7.14

====

molecular target: GPIIb/IIIa (Homo sapiens, UniProt P05106+P08514); assay: In vitro solid phase purified glycoprotein IIb/IIIa binding assay (biotinylated fibrinogen); conditions: RGD-affinity purified GPIIb/IIIa, biotinylated fibrinogen; read-out: GPIIb/IIIa Binding IC50
Sequence (P08514 32-887 limits assumed, one chain of several): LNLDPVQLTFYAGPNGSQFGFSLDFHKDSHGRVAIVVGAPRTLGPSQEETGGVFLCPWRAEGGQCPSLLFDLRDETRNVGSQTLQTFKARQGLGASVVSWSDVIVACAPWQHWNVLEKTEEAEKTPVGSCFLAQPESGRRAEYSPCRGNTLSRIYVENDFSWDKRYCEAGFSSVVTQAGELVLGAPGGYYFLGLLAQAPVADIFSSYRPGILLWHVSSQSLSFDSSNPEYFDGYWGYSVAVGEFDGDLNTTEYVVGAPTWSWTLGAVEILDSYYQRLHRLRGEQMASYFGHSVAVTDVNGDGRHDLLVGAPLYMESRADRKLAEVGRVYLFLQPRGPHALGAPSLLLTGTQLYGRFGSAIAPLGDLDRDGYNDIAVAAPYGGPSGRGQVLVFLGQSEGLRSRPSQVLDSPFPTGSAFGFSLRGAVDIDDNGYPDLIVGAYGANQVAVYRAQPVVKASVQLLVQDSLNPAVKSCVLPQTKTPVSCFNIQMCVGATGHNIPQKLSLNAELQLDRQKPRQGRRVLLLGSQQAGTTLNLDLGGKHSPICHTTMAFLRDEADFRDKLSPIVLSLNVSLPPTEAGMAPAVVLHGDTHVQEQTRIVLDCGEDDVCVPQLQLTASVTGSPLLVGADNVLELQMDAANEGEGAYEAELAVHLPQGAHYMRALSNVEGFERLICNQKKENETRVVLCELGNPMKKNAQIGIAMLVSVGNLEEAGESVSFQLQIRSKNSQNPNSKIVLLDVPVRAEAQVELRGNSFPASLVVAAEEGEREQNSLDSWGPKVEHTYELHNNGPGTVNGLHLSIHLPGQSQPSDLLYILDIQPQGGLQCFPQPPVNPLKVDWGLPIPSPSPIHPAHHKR
Sequence (P08514 891-1039 partner limits assumed, one chain of several): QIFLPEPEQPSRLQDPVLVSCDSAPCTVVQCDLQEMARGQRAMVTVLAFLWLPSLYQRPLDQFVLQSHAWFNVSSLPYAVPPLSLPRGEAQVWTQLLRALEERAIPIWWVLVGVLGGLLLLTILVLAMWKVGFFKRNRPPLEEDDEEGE
Lab note: cut-off is 2000 nM. Strictly less in IC50 is fulfilled. Exactly 2000 nM or more is not fulfilled.

Cc1c(C)c(C)c(S(=O)(=O)N[C@@H](Cc2nc3ccc(/C=C/CNc4ccccn4)cc3c(=O)[nH]2)C(=O)O)c(C)c1C [Compound 10] | fulfilled
O=C(O)[C@H](Cc1nc2ccc(/C=C/CNc3ccccn3)cc2c(=O)[nH]1)NS(=O)(=O)c1ccc(S(=O)(=O)c2ccccc2)s1 [Compound 28] | not fulfilled
COc1ccc(S(=O)(=O)N[C@@H](Cc2nc3ccc(/C=C/CNc4ccccn4)cc3c(=O)[nH]2)C(=O)O)cc1 [Compound 26] | fulfilled
O=C(O)[C@H](Cc1nc2ccc(/C=C/CNC3=NCCN3)cc2c(=O)[nH]1)NS(=O)(=O)CCc1cccc2ccccc12 [Compound 5] | fulfilled

Consider O=C(NC/C=C/c1ccc2nc(C[C@H](NS(=O)(=O)CCc3cccc4ccccc34)C(=O)O)[nH]c(=O)c2c1)NCc1ccccc1 [Compound 76] . Does its IC50 lie strictly below 2000 nM?
not fulfilled

Consider O=C(N[C@@H](Cc1nc2ccc(/C=C/CNC3=NCCN3)cc2c(=O)[nH]1)C(=O)O)OCc1ccccc1 [Compound 2] . Does its IC50 lie strictly below 2000 nM?
fulfilled

====

pIC50: recorded values
target: GPIIb/IIIa (Homo sapiens, UniProt P05106+P08514); assay: In vitro solid phase purified glycoprotein IIb/IIIa binding assay (biotinylated fibrinogen); details: RGD-affinity purified GPIIb/IIIa, biotinylated fibrinogen; read-out: GPIIb/IIIa Binding IC50
Keep in mind that pIC50 stands for -log10 of concentration in molar terms.

Worked examples follow.
Cc1c(C)c(C)c(S(=O)(=O)N[C@@H](Cc2nc3ccc(/C=C/CNC(=O)NC4C[C@H]4c4ccccc4)cc3c(=O)[nH]2)C(=O)O)c(C)c1C (stereo partly drawn) [Compound 66] | 6.11
COC(=O)[C@H](Cc1nc2ccc(/C=C/CNC3=NCCN3)cc2c(=O)[nH]1)NS(=O)(=O)c1c(C)c(C)c(C)c(C)c1C [Compound 41] | 6.62

State measured pIC50 of the compound NC/C=C/c1ccc2nc(C[C@H](NC(=O)OCc3ccccc3)C(=O)O)[nH]c(=O)c2c1 [Compound 19] with GPIIb/IIIa (Homo sapiens, UniProt P05106+P08514).
6.35

State measured pIC50 of the compound Cc1ccnc(NC/C=C/c2ccc3nc(C[C@H](NC(=O)OCc4ccccc4)C(=O)O)[nH]c(=O)c3c2)c1 [Compound 69] with GPIIb/IIIa (Homo sapiens, UniProt P05106+P08514).
4.74

State measured pIC50 of the compound CCCCNC(=O)NC/C=C/c1ccc2nc(C[C@H](NS(=O)(=O)c3c(C)c(C)c(C)c(C)c3C)C(=O)O)[nH]c(=O)c2c1 [Compound 51] with GPIIb/IIIa (Homo sapiens, UniProt P05106+P08514).
5.32

State measured pIC50 of the compound Cc1cccnc1NC/C=C/c1ccc2nc(C[C@H](NS(=O)(=O)c3c(C)c(C)c(C)c(C)c3C)C(=O)O)[nH]c(=O)c2c1 [Compound 38] with GPIIb/IIIa (Homo sapiens, UniProt P05106+P08514).
6.66

====

Molecular target: GPIIb/IIIa (Homo sapiens, UniProt P05106+P08514)
Assay: In vitro solid phase purified glycoprotein IIb/IIIa binding assay (biotinylated fibrinogen)
Conditions: RGD-affinity purified GPIIb/IIIa, biotinylated fibrinogen; read-out: GPIIb/IIIa Binding IC50
Excerpt: In vitro Solid Phase Purified αvβ3 Binding Assay The vitronectin/αvβ3 binding assay methods were derived from Mehta et al. (Biochem J. 1998, 330, 861). […] Plates were read at 490 nm on a Molecular Devices (Sunnyvale, Calif.) microplate reader. […] The absorbance was read at 490 nm.
Lab note: cut-off is 7000 nM. Strictly less in IC50 is T. Exactly 7000 nM or more is F.

O=C(N[C@@H](Cc1nc2ccc(/C=C/CNC3=NCCC3)cc2c(=O)[nH]1)C(=O)O)OCc1ccccc1 | T
COc1ccc(OC)c(S(=O)(=O)N[C@@H](Cc2nc3ccc(/C=C/CNc4ccccn4)cc3c(=O)[nH]2)C(=O)O)c1 | T

Consider O=C(O)[C@H](Cc1nc2ccc(/C=C/CNc3ccccn3)cc2c(=O)[nH]1)NS(=O)(=O)c1ccc(-c2ccon2)s1 . Does its IC50 lie strictly below 7000 nM?
T

Consider O=C(N[C@@H](Cc1nc2ccc(C#CCNC3=NCCN3)cc2c(=O)[nH]1)C(=O)O)OCc1ccccc1 . Does its IC50 lie strictly below 7000 nM?
T

Consider CC(C)(C)OC(=O)N[C@@H](Cc1nc2ccc(/C=C/CNC3=NCCCCC3)cc2c(=O)[nH]1)C(=O)O . Does its IC50 lie strictly below 7000 nM?
F

====

target: GPIIb/IIIa (Homo sapiens, UniProt P05106+P08514); assay: In vitro solid phase purified glycoprotein IIb/IIIa binding assay (biotinylated fibrinogen); details: RGD-affinity purified GPIIb/IIIa, biotinylated fibrinogen; read-out: GPIIb/IIIa Binding IC50
measurement-type: pIC50
Keep in mind that pIC50 stands for -log10 of concentration in molar terms.

Cc1c(C)c(C)c(S(=O)(=O)N[C@@H](Cc2nc3ccc(/C=C/CNC(=O)NCc4ccccc4)cc3c(=O)[nH]2)C(=O)O)c(C)c1C [Compound 49] | 6.09

Fill in reported pIC50 for this entry: Cc1c(C)c(C)c(S(=O)(=O)N[C@@H](Cc2nc3ccc(/C=C/CNC(=O)Nc4ccccc4)cc3c(=O)[nH]2)C(=O)O)c(C)c1C [Compound 13]
5.77

Fill in reported pIC50 for this entry: Cc1nn(C)c(Cl)c1S(=O)(=O)N[C@@H](Cc1nc2ccc(/C=C/CNC(=O)NCc3ccccc3)cc2c(=O)[nH]1)C(=O)O [Compound 65]
5.39

Fill in reported pIC50 for this entry: Cc1cc(C)c(S(=O)(=O)N[C@@H](Cc2nc3ccc(/C=C/CNC(=O)NCc4ccccc4)cc3c(=O)[nH]2)C(=O)O)c(C)c1 [Compound 62]
5.39

====

target: Human αvβ3 (Homo sapiens, UniProt P05106+P06756); construct: purchased Chemicon International Inc., Temecula, Calif; assay: In vitro solid phase purified αvβ3 binding assay (vitronectin/αvβ3); conditions: isolated human αvβ3, 5 nM vitronectin; read-out: αvβ3 Binding IC50
measurement-type: pIC50
Keep in mind that pIC50 stands for -log10 of concentration in molar terms.

COc1ccc(S(=O)(=O)N[C@@H](Cc2nc3ccc(/C=C/CNC4=NCCN4)cc3c(=O)[nH]2)C(=O)O)cc1 | 8.17
Cc1nn(C)c(Cl)c1S(=O)(=O)N[C@@H](Cc1nc2ccc(/C=C/CNc3ccccn3)cc2c(=O)[nH]1)C(=O)O | 7.60
Cc1c(C)c(C)c(S(=O)(=O)N[C@@H](Cc2nc3ccc(/C=C/CNC(=O)Nc4ccccc4)cc3c(=O)[nH]2)C(=O)O)c(C)c1C | 6.85
O=C(O)[C@H](Cc1nc2ccc(/C=C/CNC3=NCCN3)cc2c(=O)[nH]1)NS(=O)(=O)CCc1cccc2ccccc12 | 8.07
O=C(O)[C@H](Cc1nc2ccc(/C=C/CNc3ccccn3)cc2c(=O)[nH]1)NS(=O)(=O)c1ccc(OC(F)(F)F)cc1 | 7.23
Cc1nn(C)c(Cl)c1S(=O)(=O)N[C@@H](Cc1nc2ccc(/C=C/CNC(=O)NCc3ccccc3)cc2c(=O)[nH]1)C(=O)O | 6.80
Cc1c(C)c(C)c(S(=O)(=O)N[C@@H](Cc2nc3ccc(/C=C/CNc4ccccn4)cc3c(=O)[nH]2)C(=O)O)c(C)c1C | 8.21
COc1ccc(S(=O)(=O)N[C@@H](Cc2nc3ccc(/C=C/CNc4ccccn4)cc3c(=O)[nH]2)C(=O)O)cc1OC | 7.89

API: the following record is the query input.
Fill in reported pIC50 for this entry: COc1ccc(S(=O)(=O)N[C@@H](Cc2nc3ccc(/C=C/CNc4ccc(Cl)cn4)cc3c(=O)[nH]2)C(=O)O)cc1
6.13
